Molecular target: Tyrosine-protein kinase BTK (Homo sapiens) (UniProt Q06187)
Sequence (Q06187 whole entry): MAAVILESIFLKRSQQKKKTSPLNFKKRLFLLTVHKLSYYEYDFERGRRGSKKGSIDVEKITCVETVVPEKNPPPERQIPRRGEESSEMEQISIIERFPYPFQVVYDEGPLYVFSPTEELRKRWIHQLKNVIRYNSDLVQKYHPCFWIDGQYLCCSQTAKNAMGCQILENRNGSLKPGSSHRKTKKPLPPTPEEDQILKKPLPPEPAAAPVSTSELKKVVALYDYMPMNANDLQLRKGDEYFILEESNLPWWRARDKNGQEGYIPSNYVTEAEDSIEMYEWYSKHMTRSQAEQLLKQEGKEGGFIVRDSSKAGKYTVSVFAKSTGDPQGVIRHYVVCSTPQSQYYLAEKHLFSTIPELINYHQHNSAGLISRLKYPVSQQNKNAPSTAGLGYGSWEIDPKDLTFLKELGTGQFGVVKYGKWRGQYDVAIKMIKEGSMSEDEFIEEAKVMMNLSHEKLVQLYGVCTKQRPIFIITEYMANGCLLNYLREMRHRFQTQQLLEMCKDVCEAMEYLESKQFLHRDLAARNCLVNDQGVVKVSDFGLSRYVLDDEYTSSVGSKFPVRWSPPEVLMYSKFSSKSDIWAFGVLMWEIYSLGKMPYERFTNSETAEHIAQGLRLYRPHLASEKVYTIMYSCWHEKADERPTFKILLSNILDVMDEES
Conditions: at 1 µM
OBSERVED PROPERTY: residual activity
The reply should consist of the numeric value with the unit placed after it.

// returns residual activity for "CC(=O)c1ccc(N2CCOCC2)cc1O" with Tyrosine-protein kinase BTK (Homo sapiens) (UniProt Q06187); value = 91%

// returns residual activity for "CN(C)CCCn1cc(C2=C(c3c[nH]c4ccccc34)C(=O)NC2=O)c2ccccc21" with Tyrosine-protein kinase BTK (Homo sapiens) (UniProt Q06187); value = 89%

// returns residual activity for "Nc1cccc(-c2cc3c(Oc4cccc(O)c4)ncnc3[nH]2)c1" with Tyrosine-protein kinase BTK (Homo sapiens) (UniProt Q06187); value = 21%

// returns residual activity for "Oc1ccc(Nc2nc(-c3ccc(Cl)cc3)cs2)cc1" with Tyrosine-protein kinase BTK (Homo sapiens) (UniProt Q06187); value = 95%

// returns residual activity for "COc1ccc(CNc2nc(N(CCO)CCO)nc3c2ncn3C(C)C)cc1" with Tyrosine-protein kinase BTK (Homo sapiens) (UniProt Q06187); value = 88%

// returns residual activity for "COc1ccc(OC)c2c(=S)c3ccccc3[nH]c12" with Tyrosine-protein kinase BTK (Homo sapiens) (UniProt Q06187); value = 96%

// returns residual activity for "O=C1NC(=O)c2cc(Nc3ccc(F)cc3)c(Nc3ccc(F)cc3)cc21" with Tyrosine-protein kinase BTK (Homo sapiens) (UniProt Q06187); value = 86%

// returns residual activity for "O=C1NC(=O)/C(=C\c2ccc3nccnc3c2)S1" with Tyrosine-protein kinase BTK (Homo sapiens) (UniProt Q06187); value = 99%

// returns residual activity for "Cn1cc(/C=C2\C(=O)Nc3ccc(S(N)(=O)=O)cc32)c2ccccc21" with Tyrosine-protein kinase BTK (Homo sapiens) (UniProt Q06187); value = 19%

// returns residual activity for "Nc1n[nH]c2nnc(-c3c(-c4ccccc4)nn4ccccc34)cc12" with Tyrosine-protein kinase BTK (Homo sapiens) (UniProt Q06187); value = 86%

// returns residual activity for "Ic1cccc(CSc2nnc(-c3ccncc3)o2)c1" with Tyrosine-protein kinase BTK (Homo sapiens) (UniProt Q06187); value = 79%

----------
Target: Serine/threonine-protein kinase MRCK alpha (Homo sapiens) (UniProt Q5VT25)
Sequence (Q5VT25 whole entry): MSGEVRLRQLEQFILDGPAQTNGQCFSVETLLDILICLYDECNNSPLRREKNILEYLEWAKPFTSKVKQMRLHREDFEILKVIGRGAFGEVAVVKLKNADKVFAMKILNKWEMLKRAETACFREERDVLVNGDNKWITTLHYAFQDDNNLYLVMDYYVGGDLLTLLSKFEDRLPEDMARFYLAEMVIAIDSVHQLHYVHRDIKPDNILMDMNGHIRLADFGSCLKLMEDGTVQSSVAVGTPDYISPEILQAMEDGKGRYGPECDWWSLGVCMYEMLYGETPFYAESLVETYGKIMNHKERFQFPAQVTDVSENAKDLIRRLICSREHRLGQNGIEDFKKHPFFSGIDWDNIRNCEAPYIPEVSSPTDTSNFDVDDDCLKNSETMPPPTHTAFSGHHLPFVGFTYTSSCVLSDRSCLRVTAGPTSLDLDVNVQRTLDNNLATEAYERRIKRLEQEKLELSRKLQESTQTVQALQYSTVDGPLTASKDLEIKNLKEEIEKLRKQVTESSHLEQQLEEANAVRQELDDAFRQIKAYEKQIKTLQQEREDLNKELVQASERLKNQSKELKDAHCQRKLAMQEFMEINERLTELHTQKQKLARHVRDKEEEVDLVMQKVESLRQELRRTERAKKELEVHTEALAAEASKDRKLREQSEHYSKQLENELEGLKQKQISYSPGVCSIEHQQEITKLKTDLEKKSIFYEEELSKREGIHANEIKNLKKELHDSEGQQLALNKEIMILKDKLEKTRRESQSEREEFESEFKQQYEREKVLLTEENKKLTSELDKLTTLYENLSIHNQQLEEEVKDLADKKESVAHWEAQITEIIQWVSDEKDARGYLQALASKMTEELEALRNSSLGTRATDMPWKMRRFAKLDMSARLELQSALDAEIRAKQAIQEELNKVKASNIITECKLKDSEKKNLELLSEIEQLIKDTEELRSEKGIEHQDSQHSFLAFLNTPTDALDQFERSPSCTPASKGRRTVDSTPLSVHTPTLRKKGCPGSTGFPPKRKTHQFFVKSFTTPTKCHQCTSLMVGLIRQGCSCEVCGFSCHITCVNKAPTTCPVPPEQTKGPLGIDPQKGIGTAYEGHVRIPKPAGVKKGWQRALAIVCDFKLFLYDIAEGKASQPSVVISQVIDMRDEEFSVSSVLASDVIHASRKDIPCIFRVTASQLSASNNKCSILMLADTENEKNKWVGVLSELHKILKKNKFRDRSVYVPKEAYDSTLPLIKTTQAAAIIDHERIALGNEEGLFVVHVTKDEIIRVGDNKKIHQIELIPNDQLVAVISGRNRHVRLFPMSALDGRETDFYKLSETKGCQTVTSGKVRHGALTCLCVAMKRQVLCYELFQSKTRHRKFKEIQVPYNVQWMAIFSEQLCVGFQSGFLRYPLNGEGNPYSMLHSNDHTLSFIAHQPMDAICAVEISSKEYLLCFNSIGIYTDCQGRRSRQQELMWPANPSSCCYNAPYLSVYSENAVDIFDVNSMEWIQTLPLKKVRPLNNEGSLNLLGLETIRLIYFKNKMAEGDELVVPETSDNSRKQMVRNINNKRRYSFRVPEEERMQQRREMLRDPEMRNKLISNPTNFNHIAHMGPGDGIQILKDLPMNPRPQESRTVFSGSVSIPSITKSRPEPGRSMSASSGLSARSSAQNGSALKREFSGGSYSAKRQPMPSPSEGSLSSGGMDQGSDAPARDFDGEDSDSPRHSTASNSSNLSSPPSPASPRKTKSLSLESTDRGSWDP
Conditions: at 10 µM
Field: residual activity. Provide a value for each of the compounds that follow.
Number only, in %; omit the unit.

The compound "N#CC(C#N)=C(N)/C(C#N)=C/c1ccc(O)cc1" showed residual activity equal to 76

The compound "CC(C)n1cnc2c(NCc3ccccc3)nc(NCCCO)nc21" showed residual activity equal to 83

The compound "Oc1n[nH]c2nnc(-c3c(-c4ccccc4)nn4ccccc34)cc12" showed residual activity equal to 79

----------
Target: Activated CDC42 kinase 1 (Homo sapiens)
Conditions: at 10 µM
Field: residual activity. Provide a value for each of the compounds that follow.
Number only, in %; omit the unit.

// returns residual activity for "O=C1Nc2ccc(Br)cc2/C1=C\c1cc2c([nH]1)CCCC2" with Activated CDC42 kinase 1 (Homo sapiens); value = 50

// returns residual activity for "CC[n+]1c(/C=C/N(C)c2ccccc2)n(-c2ccccc2)c2ccc(-c3nc4ccccc4s3)cc21" with Activated CDC42 kinase 1 (Homo sapiens); value = 77

// returns residual activity for "Cc1cccc(-c2[nH]c(C(C)(C)C)nc2-c2ccc3c(c2)OCO3)n1" with Activated CDC42 kinase 1 (Homo sapiens); value = 67

// returns residual activity for "O=c1cc(-c2cccc3c2Sc2ccccc2S3)oc(N2CCOCC2)c1" with Activated CDC42 kinase 1 (Homo sapiens); value = 84

// returns residual activity for "CC(C)n1cnc2c(NCc3ccccc3)nc(NCCCO)nc21" with Activated CDC42 kinase 1 (Homo sapiens); value = 58

// returns residual activity for "O=C(Nc1cccc(Nc2nccc(Nc3cccc(C(F)(F)F)c3)n2)c1)C1CC1" with Activated CDC42 kinase 1 (Homo sapiens); value = 5

// returns residual activity for "Cc1ccc(NC2=CC(=O)c3sc(C)nc3C2=O)cc1" with Activated CDC42 kinase 1 (Homo sapiens); value = 71

// returns residual activity for "Ic1cccc(CSc2nnc(-c3ccncc3)o2)c1" with Activated CDC42 kinase 1 (Homo sapiens); value = 60

// returns residual activity for "CNc1cc2c(Nc3cccc(Br)c3)ncnc2cn1" with Activated CDC42 kinase 1 (Homo sapiens); value = 11

// returns residual activity for "COc1cc2ncnc(N3CCN(C(=O)Nc4ccc(Oc5ccccc5)cc4)CC3)c2cc1OC" with Activated CDC42 kinase 1 (Homo sapiens); value = 54

// returns residual activity for "CC#CC(=O)Nc1cc2c(Nc3ccc(F)c(Cl)c3)ncnc2cn1" with Activated CDC42 kinase 1 (Homo sapiens); value = 71

// returns residual activity for "O=C1c2ccccc2-[n+]2ccc3c([nH]c4ccccc43)c21" with Activated CDC42 kinase 1 (Homo sapiens); value = 55

// returns residual activity for "Cc1ccc(S(=O)(=O)/C=C/C#N)cc1" with Activated CDC42 kinase 1 (Homo sapiens); value = 75

// returns residual activity for "Cc1cc(Nc2nc(-c3ccccc3)nc3ccccc23)n[nH]1" with Activated CDC42 kinase 1 (Homo sapiens); value = 0

// returns residual activity for "CC(=O)O/N=C1\C(=C2\C(=O)Nc3cc(Br)ccc32)Nc2ccccc21" with Activated CDC42 kinase 1 (Homo sapiens); value = 15

// returns residual activity for "CO[C@H]1[C@@H](OC)C[C@H](C)[C@@H](OC)C2=CC(=O)C=C(NC(=O)/C(C)=C/C=C/[C@H](OC)[C@@H](OC(N)=O)/C(C)=C/[C@@H]1C)C2=O" with Activated CDC42 kinase 1 (Homo sapiens); value = 72

// returns residual activity for "CO[C@@H]1[C@H](N(C)C(=O)c2ccccc2)C[C@H]2O[C@]1(C)n1c3ccccc3c3c4c(c5c6ccccc6n2c5c31)C(=O)NC4" with Activated CDC42 kinase 1 (Homo sapiens); value = -1

// returns residual activity for "COc1ccc(CNc2nc(N(CCO)CCO)nc3c2ncn3C(C)C)cc1" with Activated CDC42 kinase 1 (Homo sapiens); value = 51

// returns residual activity for "O=C1NC(=O)/C(=C/c2ccc3c(c2)OC(F)(F)O3)S1" with Activated CDC42 kinase 1 (Homo sapiens); value = 70

// returns residual activity for "N#CC(C#N)=C(N)/C(C#N)=C/c1ccc(O)cc1" with Activated CDC42 kinase 1 (Homo sapiens); value = 70

// returns residual activity for "COc1cc2ncc(-c3ccccc3)nc2cc1OC" with Activated CDC42 kinase 1 (Homo sapiens); value = 56

// returns residual activity for "Cc1nc(-c2ccccc2)c(-c2ccncc2)o1" with Activated CDC42 kinase 1 (Homo sapiens); value = 64

// returns residual activity for "COc1ccc(C(=O)Nc2sc3c(c2C(N)=O)CCCC3)cc1OC" with Activated CDC42 kinase 1 (Homo sapiens); value = 54

Origin of measurements: ChEMBL document CHEMBL2218924
